From: ChEMBL document CHEMBL5360601

# assay remarks: Metabolic stability in human liver microsomes assessed as parent compound remaining; also: time not given here
# Format: ADME, Microsome
property measured: Stability (%)

Cn1c(=O)c(C(=O)C(F)(F)F)c(N2CCN(C(c3ccccc3)c3ccccc3)CC2)c2ccccc21 :: 75
Cn1c(=O)c([N+](=O)[O-])c(N2CCN(C(c3ccc(F)cc3)c3ccc(F)cc3)CC2)c2ccccc21 :: 86
Cn1c(=O)c([N+](=O)[O-])c(N2CCN(C(c3ccccc3)c3ccccc3)CC2)c2ccccc21 :: 93
